Would you kindly list Kd for each of these compounds?
Target: DD(E) fragment of fibrin (Homo sapiens, UniProt P02671+P02675+P02679, DEL433-453)
Construct: complex of the crosslinked D domains of adjacent fibrin monomers with the central E domain of fibrin
Sequence (P02671 130-216 limits assumed, stated change not applied): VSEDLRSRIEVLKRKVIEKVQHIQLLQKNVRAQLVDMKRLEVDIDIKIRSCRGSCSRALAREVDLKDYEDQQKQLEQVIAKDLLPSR
Sequence (P02671 36-97 limits assumed, stated change not applied): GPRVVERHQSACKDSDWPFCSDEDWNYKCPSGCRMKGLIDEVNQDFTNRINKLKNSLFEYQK
Sequence (P02675 164-491 limits assumed, stated change not applied): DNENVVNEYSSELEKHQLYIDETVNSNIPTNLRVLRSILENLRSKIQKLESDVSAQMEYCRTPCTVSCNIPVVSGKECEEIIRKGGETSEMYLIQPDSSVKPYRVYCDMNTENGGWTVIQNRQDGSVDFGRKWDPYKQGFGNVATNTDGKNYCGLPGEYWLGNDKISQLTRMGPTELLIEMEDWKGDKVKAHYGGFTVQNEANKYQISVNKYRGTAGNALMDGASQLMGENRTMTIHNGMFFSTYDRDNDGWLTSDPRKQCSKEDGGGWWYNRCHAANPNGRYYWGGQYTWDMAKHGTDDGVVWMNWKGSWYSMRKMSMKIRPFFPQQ
Sequence (P02675 45-152 limits assumed, stated change not applied): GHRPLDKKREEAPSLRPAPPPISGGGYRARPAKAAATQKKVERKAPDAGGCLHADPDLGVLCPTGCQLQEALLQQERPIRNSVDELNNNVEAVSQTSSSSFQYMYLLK
Sequence (P02679 114-432 limits assumed, stated change not applied): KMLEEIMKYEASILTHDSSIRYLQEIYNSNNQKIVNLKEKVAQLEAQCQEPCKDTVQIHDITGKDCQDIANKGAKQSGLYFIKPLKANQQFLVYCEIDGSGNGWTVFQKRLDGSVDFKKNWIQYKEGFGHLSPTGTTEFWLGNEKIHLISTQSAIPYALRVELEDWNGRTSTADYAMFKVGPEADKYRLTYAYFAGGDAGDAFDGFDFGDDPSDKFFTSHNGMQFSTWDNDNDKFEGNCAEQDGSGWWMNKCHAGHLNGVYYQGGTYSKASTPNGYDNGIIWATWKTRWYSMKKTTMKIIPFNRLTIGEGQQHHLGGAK
Sequence (P02679 27-88 limits assumed, stated change not applied): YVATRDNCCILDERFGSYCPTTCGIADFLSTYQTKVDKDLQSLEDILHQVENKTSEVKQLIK
Assay: Dissociation constant (Kd) of optical agent for DD(E) fragment of fibrin
Assay type: binding
Details: 24° C.; read-out: Kd (μM) vs. DD(E) @ 24° C.
Starred links: 1 amine or outer side, 2 acyl side, 3 side chain; linkers in the order of their positions; H or OH if unused. Positions of bridges follow the written chain, without caps; N, C: chain ends. Non-standard residues stand in square brackets, D forms with d. Residues, ends and D or L forms follow the SMILES beside them. ξ: configuration not given here. *: point of attachment. X1 = CN(C)c1ccc2c(-c3cc(C(=O)*)ccc3C(=O)[O-])c3ccc(=[N+](C)C)cc-3oc2c1; NH(Fluorescein-5-yl) = O=C1OC2(c3ccc(O)cc3Oc3cc(O)ccc32)c2ccc(N*)cc21; Tyr(3-I) = N[C@@H](Cc1ccc(O)c(I)c1)C(=O)O; Hyp = O=C(O)[C@@H]1C[C@@H](O)CN1; Ile(3ξ) = CCC(C)[C@H](N)C(=O)O; CO = O=C([*:1])[*:2]; Ahx = NCCCCCC(=O)O
Provide only the numeric value, understood in µM.

Prompt: Given the compound CC[C@H](C)[C@H](NC(=O)[C@H](Cc1c[nH]cn1)NC(=O)[C@@H]1CSSC[C@H](NC(=O)[C@H](Cc2c[nH]cn2)NC(=O)[C@H](Cc2ccccc2)NC(=O)CCCCCNC(=O)Nc2ccc3c(c2)C(=O)OC32c3ccc(O)cc3Oc3cc(O)ccc32)C(=O)N2C[C@H](O)C[C@H]2C(=O)N[C@@H](Cc2ccc(O)c(I)c2)C(=O)N[C@@H](CC(=O)O)C(=O)N[C@@H](CC(C)C)C(=O)N1)C(=O)N[C@@H](CC(C)C)C(N)=O [Structure II] ({NH(Fluorescein-5-yl)-CO-Ahx}-FHC[Hyp][Tyr(3-I)]DLCHIL-NH2; disulfide 3-8) , what is its reported Kd?
Response: 0.1

Prompt: Endpoint output: Kd of CC[C@H](C)[C@H](NC(=O)[C@H](Cc1c[nH]cn1)NC(=O)[C@@H]1CSSC[C@H](NC(=O)[C@H](Cc2c[nH]cn2)NC(=O)[C@H](Cc2ccccc2)NC(=O)CNC(=O)CCCCCNC(=O)Nc2ccc3c(c2)C(=O)OC32c3ccc(O)cc3Oc3cc(O)ccc32)C(=O)N2C[C@H](O)C[C@H]2C(=O)N[C@@H](Cc2ccc(O)c(I)c2)C(=O)N[C@@H](CC(=O)O)C(=O)N[C@@H](CC(C)C)C(=O)N1)C(=O)N[C@@H](CC(C)C)C(N)=O [Structure III] ({NH(Fluorescein-5-yl)-CO-Ahx}-GFHC[Hyp][Tyr(3-I)]DLCHIL-NH2; disulfide 4-9) . Value?
Response: 0.1

Prompt: Form field: reported Kd of CCC(C)[C@H](NC(=O)[C@H](Cc1c[nH]c2ccccc12)NC(=O)[C@@H]1CSSC[C@H](NC(=O)[C@H](CCC(=O)O)NC(=O)[C@H](Cc2c[nH]c3ccccc23)NC(=O)[C@H](CCC(N)=O)NC(=O)CCCCCNC(=O)c2ccc(C(=O)[O-])c(-c3c4ccc(=[N+](C)C)cc-4oc4cc(N(C)C)ccc34)c2)C(=O)N2CCC[C@H]2C(=O)N[C@@H](Cc2ccc(O)cc2)C(=O)NCC(=O)N[C@@H](CC(C)C)C(=O)N1)C(=O)N[C@@H](CCC(N)=O)C(N)=O (stereo partly drawn) [Structure XI] ({X1-Ahx}-QWECPYGLCW[Ile(3ξ)]Q-NH2; disulfide 4-9)
Response: 0.09
